MEASUREMENT DESCRIPTION: single oral dose pharmacokinetic study in healthy and NASH subjects
Assay type: in vivo, human
SETTINGS: human, plasma, po, 200 mg, 200 mg single oral dose, Healthy; read-out: AUC0-12, Mean
Procedure: The present Example was a randomized, dose ranging, single dose safety and pharmacokinetic study of 25HC3S administered to subjects with NASH and control healthy subjects. […] For each cohort, 10 subjects with NASH were enrolled which were further classified into cirrhotic and non-cirrhotic. Each subject received only one dose of study treatment. The second cohort was dosed after a review of safety and tolerability data from Cohort 1.
READOUT TYPE: AUC(0-t) (ng·h/mL)

>>> value("C[C@H](CCCC(C)(C)O)[C@H]1CC[C@H]2[C@@H]3CC=C4C[C@@H](OS(=O)(=O)[O-])CC[C@]4(C)[C@H]3CC[C@]12C.[Na+] [25HC3S sodium, 25-hydroxycholesterol-3-sulfate sodium]")
1180
